- System: human cervical tumor cell line HeLa (ATCC CCL-2)
- assay_notes: SAC-Formation - Nocodazole-Induced Assay
- Type: cell-based
- study_conditions: Homo sapiens, HeLa, 24 h, HeLa cells, nocodazole 0.1 μg/ml together with test compound, decrease of mitotic cells (phospho-histone H3 Ser10)
pIC50: −log10 of the molar value.
result_type: pIC50

Cc1nsc(Nc2cc(C#N)ccn2)c1C(=O)Nc1ccc(OCCC(=O)OC(C)(C)C)nc1
6.34
Cc1nsc(Nc2cncc(C(F)(F)F)n2)c1C(=O)Nc1ccc(C(=O)NCCN2CCCC(F)(F)C2)cc1
6.49
Cc1nsc(Nc2cnc(C(F)(F)F)cn2)c1C(=O)Nc1ccc(OC[C@H]2CCN(CC(F)(F)F)C2)nc1 [Example 404]
7.20
Cc1nsc(Nc2cnc(C(F)(F)F)cn2)c1C(=O)Nc1ccc(N2CCN(CC(F)F)CC2)nc1
7.54
Cc1nsc(Nc2cnc(C(F)(F)F)cn2)c1C(=O)Nc1ccc(OCCNCC(F)F)nc1
6.29
Cc1nsc(Nc2cnc(C(F)(F)F)cn2)c1C(=O)Nc1ccc(F)c(OC[C@@H]2CCCN(CC(F)F)C2)c1
7.57

I = Cc1nsc(Nc2cnc(C(F)(F)F)cn2)c1C(=O)Nc1ccc(O[C@@H]2CCCN(CCC(F)(F)F)C2)nc1
II = Cc1nsc(Nc2cnc(C(F)(F)F)cn2)c1C(=O)Nc1ccc(OCC2CCN(CC(F)(F)F)C2)nc1 (centres unmarked)
Param pair: I , II . Output: the one whose pIC50 is numerically greater. Answer = label.
II

1 = Cc1nsc(Nc2cncc(C(F)(F)F)n2)c1C(=O)Nc1ccc(C(=O)NCCN2CCCC(F)C2)cc1 (centres unmarked)
2 = COC(=O)c1cccc(NC(=O)c2c(C)nsc2Nc2cnc3ccccc3n2)c1
Param pair: 1 , 2 . Output: the one whose pIC50 is numerically greater. Answer = label.
1
(1: 5.77, 2: 5.35)

A = Cc1nsc(Nc2cnc3ccccc3n2)c1C(=O)Nc1cccc(C(=O)N(C)CCN(C)C)c1
B = Cc1nsc(Nc2ccc(C#N)cn2)c1C(=O)Nc1cccc(NC(=O)OC(C)(C)C)c1
C = Cc1nsc(Nc2cnc(C(F)(F)F)cn2)c1C(=O)Nc1ccc(C(=O)NCCN2CCCC(F)(F)C2)cc1
D = Cc1nsc(Nc2cnc3ccccc3n2)c1C(=O)Nc1cccc(NS(=O)(=O)C2CCN(CC(F)F)CC2)c1
Sort by pIC50, descending. Note for the reader: the ranking is given by listing the labels in the order requested.
C, B, A, D
(C: 7.19, B: 6.49, A: 5.52, D: 5.17)

a = Cc1nsc(Nc2cnc(C(F)(F)F)cn2)c1C(=O)Nc1ccc(OCCCN(C)CCF)nc1
b = Cc1nsc(Nc2cnc(C(F)(F)F)cn2)c1C(=O)Nc1ccc(O[C@H]2CCCN(CC(F)F)C2)nc1
Param pair: a , b . Output: the one whose pIC50 is numerically greater. Answer = label.
b
(b: 7.43, a: 6.33)

A = Cc1nsc(Nc2cncc(C(F)(F)F)n2)c1C(=O)Nc1ccc(C(=O)N2CCN(CCF)CC2)cc1
B = Cc1nsc(Nc2ccc(C#N)cn2)c1C(=O)Nc1ccc(OC2CCN(CC(F)(F)F)CC2)nc1
C = Cc1nsc(Nc2cnc(C(F)(F)F)cn2)c1C(=O)Nc1ccc(OCC2CCN(CC(F)F)CC2)nc1
Sort by pIC50, descending. Note for the reader: the ranking is given by listing the labels in the order requested.
C, A, B
